Assay: MTS cytotoxicity assay, CEM
Assay type: cell-based
Conditions: human, CEM (lymphoid) cells
RECORDED_METRIC: CC50 at 8 days (µM)
Answers are plain numbers, in µM.

For C[C@@H]1[C@H](n2ccc(N)nc2=O)O[C@@](CO)(N=[N+]=[N-])[C@H]1O , write its CC50 at 8 days.
400

---

Experiment: MTS cytotoxicity assay, HepG2
Assay type: cell-based
Conditions: human, HepG2 (liver) cells
RECORDED_METRIC: CC50 at 8 days (µM)
One number for each entry, in µM.

Supply reported CC50 at 8 days belonging to this compound: C[C@@H]1[C@H](n2ccc(N)nc2=O)O[C@@](CO)(N=[N+]=[N-])[C@H]1O
300

---

Experiment: MTS cytotoxicity assay, BxPC3
Format: cell-based
Settings: human, BxPC3 (pancreatic) cells
RECORDED_METRIC: CC50 at 8 days (µM)
Numbers only, in µM.

Specify measured CC50 at 8 days for C[C@@H]1[C@H](n2ccc(N)nc2=O)O[C@@](CO)(N=[N+]=[N-])[C@H]1O .
400

---

Assay: MTS cytotoxicity assay, Huh 7
Assay type: cell-based
Settings: human, Huh 7 (liver) cells
RECORDED_METRIC: CC50 at 8 days

Quick one: give measured CC50 at 8 days for C[C@@H]1[C@H](n2ccc(N)nc2=O)O[C@@](CO)(N=[N+]=[N-])[C@H]1O
> 100 µM

---

Assay: Toxicity, luciferase assay in P4 CCR5-luc cells
Assay type: cell-based
Conditions: human, read-out: Cytotoxicity CC50, P4 Cells
RECORDED_METRIC: CC50 at 4 days

Supply recorded CC50 at 4 days for C[C@@H]1[C@H](n2ccc(N)nc2=O)O[C@@](CO)(N=[N+]=[N-])[C@H]1O here.
> 100 µM

---

Assay: Cytotoxicity in PBMC
Type: cell-based
RECORDED_METRIC: CC50

Return value of CC50 for input C[C@@H]1[C@H](n2ccc(N)nc2=O)O[C@@](CO)(N=[N+]=[N-])[C@H]1O , no commentary.
> 100 µM
